- methodNotes: Half life in Beagle dog at 0.1 mg/kg, iv measured upto 24 hrs by LC-MS/MS analysis
- Type: ADME, organism-based, Canis lupus familiaris
- conditions: in vivo
measurementType: half-life (h)
Use h as the unit, but write only the number.

Inquiry: Can you share its half-life? I mean this compound: "COC1CCN(c2cc(C(=O)NS(=O)(=O)N(C)C)nc3c2c(C2CCC2)nn3-c2ccc(F)cc2)CC1"
Reply text: 5.4

---

- subjectOfTest: UniProtKB P08684
- Sequence (P08684 whole entry): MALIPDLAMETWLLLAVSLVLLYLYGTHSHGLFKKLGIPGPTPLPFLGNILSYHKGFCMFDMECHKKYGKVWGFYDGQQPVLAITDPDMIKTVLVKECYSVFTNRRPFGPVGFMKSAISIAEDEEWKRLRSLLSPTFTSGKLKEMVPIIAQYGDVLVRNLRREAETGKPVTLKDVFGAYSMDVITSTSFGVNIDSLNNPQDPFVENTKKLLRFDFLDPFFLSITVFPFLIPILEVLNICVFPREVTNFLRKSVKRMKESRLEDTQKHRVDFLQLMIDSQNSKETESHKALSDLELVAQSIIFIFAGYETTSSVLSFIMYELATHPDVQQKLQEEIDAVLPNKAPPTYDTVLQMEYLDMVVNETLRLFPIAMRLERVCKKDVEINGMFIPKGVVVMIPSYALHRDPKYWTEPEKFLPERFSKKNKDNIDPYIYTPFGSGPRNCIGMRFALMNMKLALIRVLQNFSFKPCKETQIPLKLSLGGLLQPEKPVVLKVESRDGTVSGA
- methodNotes: Inhibition of CYP3A4 in human liver microsomes using midazolam as substrate in presence of NADPH by LC/MS/MS analysis
- Type: ADME, Microsome
measurementType: IC50

Inquiry: # query: IC50 of entry "COC1CCN(c2cc(C(=O)NS(=O)(=O)N(C)C)nc3c2c(C2CCC2)nn3-c2ccc(F)cc2)CC1"
Reply text: > 100 µM

Reference source: ChEMBL document CHEMBL5335845
